The origin of these recorded values is patent US20100260765A1.

Each entry below carries its reported ELISA reading.
biological target: T1, soluble KDR extracellular domain (ECD) (Calbiochem) (human, UniProt P35968 20-764); test: High Antigen ELISA, KDR coat 500 ng/mL, supernatant 1:675
T1 construct: extracellular domain; Bought protein; also called KDR-ECD; VEGF Receptor 2 D1-7, Cat. #676490
T1 sequence (P35968 20-764): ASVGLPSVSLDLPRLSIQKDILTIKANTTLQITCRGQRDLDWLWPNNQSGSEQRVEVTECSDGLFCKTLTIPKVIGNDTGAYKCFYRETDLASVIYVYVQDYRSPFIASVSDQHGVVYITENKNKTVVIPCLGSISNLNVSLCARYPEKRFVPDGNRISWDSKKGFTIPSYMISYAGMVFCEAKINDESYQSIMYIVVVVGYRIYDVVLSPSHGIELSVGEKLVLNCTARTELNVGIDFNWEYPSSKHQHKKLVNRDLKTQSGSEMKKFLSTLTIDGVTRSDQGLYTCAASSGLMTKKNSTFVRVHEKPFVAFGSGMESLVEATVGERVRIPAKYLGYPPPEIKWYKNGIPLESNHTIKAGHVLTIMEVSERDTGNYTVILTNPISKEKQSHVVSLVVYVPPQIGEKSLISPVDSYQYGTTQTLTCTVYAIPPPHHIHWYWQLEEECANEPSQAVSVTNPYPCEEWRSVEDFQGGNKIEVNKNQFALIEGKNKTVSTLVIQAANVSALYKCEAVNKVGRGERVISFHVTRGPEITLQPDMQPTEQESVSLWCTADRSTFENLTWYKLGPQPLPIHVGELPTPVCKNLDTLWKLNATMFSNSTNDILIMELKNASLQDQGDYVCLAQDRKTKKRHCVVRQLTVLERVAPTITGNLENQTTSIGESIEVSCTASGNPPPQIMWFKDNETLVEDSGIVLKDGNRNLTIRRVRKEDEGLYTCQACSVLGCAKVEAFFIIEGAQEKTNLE
measured.metric: ELISA reading

1. 21A1 (antibody, V domains shown, Fully human mAb from XenoMouse hybridoma, tested as hybridoma supernatant) VH: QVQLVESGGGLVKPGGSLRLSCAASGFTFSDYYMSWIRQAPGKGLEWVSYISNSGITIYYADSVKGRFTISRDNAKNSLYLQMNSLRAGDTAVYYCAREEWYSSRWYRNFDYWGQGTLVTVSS VL: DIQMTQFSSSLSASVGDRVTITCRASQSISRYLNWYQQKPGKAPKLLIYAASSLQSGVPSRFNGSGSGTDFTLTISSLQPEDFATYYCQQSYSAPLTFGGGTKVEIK
3.36
2. 32G7 (antibody, V domains shown, Fully human mAb from XenoMouse hybridoma, tested as hybridoma supernatant) VH: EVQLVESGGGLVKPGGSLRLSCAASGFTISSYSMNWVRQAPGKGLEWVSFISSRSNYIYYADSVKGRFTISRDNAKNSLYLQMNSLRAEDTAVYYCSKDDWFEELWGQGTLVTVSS VL: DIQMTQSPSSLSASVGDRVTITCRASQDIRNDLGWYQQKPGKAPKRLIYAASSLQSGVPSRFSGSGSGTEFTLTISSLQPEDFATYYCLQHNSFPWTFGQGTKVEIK
0.55
3. 30F6 (antibody, V domains shown, Fully human mAb from XenoMouse hybridoma, tested as hybridoma supernatant) VH: QVQLVESGGGVVQPGRSLRLSCAASGFTFSTYGMHWVRQAPGKGLEWVAVIWYDGSNKYYADSVKGRFTISRDNSKNTLYLQMNSLRAEDTAVYYCACSYWNDDYYYGMDVWGQGTTVTVSS VL: DIQMTQSPSSLSASVGDRVIITCRASQNISSYLIWYQQKPGKAPNLLIHTTSSLQRGVPSRFSGSGSGTDFTLTISSLQPEDFATYYCQQSYSAPLTFGGGTKVEIK
0.93
4. 24C9 (antibody, V domains shown, Fully human mAb from XenoMouse hybridoma, tested as hybridoma supernatant) VH: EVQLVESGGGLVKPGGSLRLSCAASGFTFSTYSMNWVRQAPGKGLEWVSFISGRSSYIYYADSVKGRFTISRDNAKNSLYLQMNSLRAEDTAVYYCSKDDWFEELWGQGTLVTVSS VL: DIQMTQSPSSLSASVGDRVTITCRASQGIRNDLGWYQQKPGKAPKRLIYATFSLQSGVPSRFSGSGSGTEFTLTISSLQPEDFATYYCLQHNRYPWTFGQGTKVEIK
1.45
5. 29A3 (antibody, V domains shown, Fully human mAb from XenoMouse hybridoma, tested as hybridoma supernatant) VH: QVQLQESGPGLVKPSETLSLTCTVSGGSISSYFWSWIRQPAGKGLEWIGRIYFSGRTNYNPSLKSRVTMSVETSKNQFSLKLNSVTAADTAVYYCARDGGWNYDVAFDYWGQGTLVTVSS VL: QAVLTQPSSLSASPGASASLTCTLRSGINVGTYRIYWYQQKPGSPPQYLLRYKSDSDQLQGSGVPSRFSGSKDASANAGILLISGLQSEDEADYYCMVWHSNTWVFGGGTKLTVL
3.32
6. 29H3 (antibody, V domains shown, Fully human mAb from XenoMouse hybridoma, tested as hybridoma supernatant) VH: QVQLVQSGAEVKKPGASVKVSCKASGYTFTSYDINWVRQATGQGLEWMGWMNPNSGKTGYAQKFQGRVTMTRNTSINTAYMELSSLRSEDTAVYYCARGGYSNLGWFDPWGQGTLVTVSS VL: DIQMTQSPSSVSASVGDRVTITCRASQGISSWLVWYHQKPGKAPKLLIYGASSLQSGVPSRFSGSGSGTDFTLTISSLQPEDFATYYCQQANNFPFTFGPGTKVDIK
2.83
7. 21H9 (antibody, V domains shown, Fully human mAb from XenoMouse hybridoma, tested as hybridoma supernatant) VH: QVPLVESGGGVVQPGRSLRLSCAASGFTFSSYGMHWVRQAPGKGLEWVAVIWYDGSNKYYADSVQGRFTISRDNSKNTLYLQMNSLRAEDTAVYYCARGVTMVRGLIIARYYYGLDVWGQGTTVTVSS VL: DIVMTQTPLSSPVTFGQPASISCRSSQSLVHSDGNTYLSWLQQRPGQPPRLLIYKISNRFFGVPDRFSGSGAGTDFTLKISRVEAEDVGLYYCMQSTQFPLTFGGGTKVEIK
1.56
8. 33E1 (antibody, V domains shown, Fully human mAb from XenoMouse hybridoma, tested as hybridoma supernatant) VH: QVQLQESGPGLVKPSQTLSLTCTVSGGSISSGDHYWSWIRQHPGKGLEWIGHIYYSGSTDYNPSLKSRVTISVDTSKNHFSLKLNSVTAADTAVYYCARTNSSSWSDWYFDLWGRGTLVTVSS VL: DIVMTQSPDSLAVSLGERATINCKSSQSILYSSNNKNYLAWYQRKPGQPPILLIHWASTRESGVPDRFSGSGSRTDFTLTISSLQAEDVAVYYCQQYFITPWTFGQGTKVEIK
3.51
